These data points were gathered from paper PMC7321301.

target: LOX (Glycine max); assay type: biochemical; details: read-out: IC50 LOX; mean ± SD, triplicate
Sequence (P08170 whole entry): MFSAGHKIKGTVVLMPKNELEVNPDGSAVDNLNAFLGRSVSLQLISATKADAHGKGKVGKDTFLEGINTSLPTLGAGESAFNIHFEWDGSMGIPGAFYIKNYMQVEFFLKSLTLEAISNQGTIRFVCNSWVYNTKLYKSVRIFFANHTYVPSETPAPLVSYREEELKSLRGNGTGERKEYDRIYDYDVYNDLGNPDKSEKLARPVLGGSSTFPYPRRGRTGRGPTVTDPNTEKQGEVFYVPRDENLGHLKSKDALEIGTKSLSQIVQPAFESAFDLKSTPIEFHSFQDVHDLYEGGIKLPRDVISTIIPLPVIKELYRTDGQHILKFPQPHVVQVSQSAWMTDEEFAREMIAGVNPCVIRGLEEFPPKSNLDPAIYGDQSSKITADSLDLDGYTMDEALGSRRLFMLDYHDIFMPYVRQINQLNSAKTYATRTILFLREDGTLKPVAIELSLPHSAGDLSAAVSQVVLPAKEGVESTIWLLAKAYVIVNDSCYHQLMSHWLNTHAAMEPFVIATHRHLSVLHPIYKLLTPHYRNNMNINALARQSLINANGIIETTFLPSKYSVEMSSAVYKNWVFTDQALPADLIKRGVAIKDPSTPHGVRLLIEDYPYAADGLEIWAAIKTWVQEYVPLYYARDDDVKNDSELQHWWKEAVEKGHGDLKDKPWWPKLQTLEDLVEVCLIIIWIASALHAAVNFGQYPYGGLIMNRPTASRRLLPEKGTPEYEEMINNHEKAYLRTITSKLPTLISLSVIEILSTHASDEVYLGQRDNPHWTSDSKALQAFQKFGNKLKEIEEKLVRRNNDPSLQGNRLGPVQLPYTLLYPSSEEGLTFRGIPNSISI
No end group written: not given here.
ENDPOINT NAME: IC50 (µM)
Numbers only here, please. The scale is µM.

Record RLARAGLAQ [RQ-9, RLARAGLAQ] . Reported IC50: 205

* * *

molecular target: α-amylase from hog pancreas (Sus scrofa, UniProt P00690); construct: α-amylase from hog pancreas (50 U/mg); from tissue; host or cells: hog pancreas; assay: α-amylase inhibitory activity (starch, DNS) and kinetics; format: biochemical
Sequence (P00690 16-511): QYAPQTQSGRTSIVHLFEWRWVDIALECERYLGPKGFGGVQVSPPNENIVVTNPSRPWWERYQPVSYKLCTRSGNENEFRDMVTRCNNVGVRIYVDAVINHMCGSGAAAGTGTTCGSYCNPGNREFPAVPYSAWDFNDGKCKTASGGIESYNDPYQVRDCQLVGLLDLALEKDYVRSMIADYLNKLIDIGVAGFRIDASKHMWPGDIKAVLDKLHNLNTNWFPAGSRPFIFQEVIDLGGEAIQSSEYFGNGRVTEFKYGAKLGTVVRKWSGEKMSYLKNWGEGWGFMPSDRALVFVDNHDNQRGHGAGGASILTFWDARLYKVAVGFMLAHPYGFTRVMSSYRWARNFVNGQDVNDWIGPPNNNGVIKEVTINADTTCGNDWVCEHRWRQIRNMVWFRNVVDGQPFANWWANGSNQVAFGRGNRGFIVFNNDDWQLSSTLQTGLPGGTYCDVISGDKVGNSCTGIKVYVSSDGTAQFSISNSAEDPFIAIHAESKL
No end group written: not given here.
ENDPOINT NAME: IC50

Record GQLGEHGGAGMG [GG-12, GQLGEHGGAGMG] . Reported IC50: 53 µM

Record EQGFLPGPEESGR [ER-13, EQGFLPGPEESGR] . Reported IC50: 51.1 µM

Record GEHGGAGMGGGQFQPV [GV-16, GEHGGAGMGGGQFQPV] . Reported IC50: 44.6 µM

Record RLARAGLAQ [RQ-9, RLARAGLAQ] . Reported IC50: 69.9 µM

Record YGNPVGGVGH [YH-10, YGNPVGGVGH] . Reported IC50: 80.3 µM

Record GNPVGGVGHGTTGT [GT-14, GNPVGGVGHGTTGT] . Reported IC50: 50 µM

* * *

Provide the reported IC50 of each item.
target: angiotensin converting enzyme (ACE) (Homo sapiens, UniProt P12821); experiment: ACE inhibitor activity (HHL substrate, OPA) and kinetics; assay type: biochemical; settings: mean ± SD, triplicate; nd = not detected
Sequence (P12821 30-1306, species assumed): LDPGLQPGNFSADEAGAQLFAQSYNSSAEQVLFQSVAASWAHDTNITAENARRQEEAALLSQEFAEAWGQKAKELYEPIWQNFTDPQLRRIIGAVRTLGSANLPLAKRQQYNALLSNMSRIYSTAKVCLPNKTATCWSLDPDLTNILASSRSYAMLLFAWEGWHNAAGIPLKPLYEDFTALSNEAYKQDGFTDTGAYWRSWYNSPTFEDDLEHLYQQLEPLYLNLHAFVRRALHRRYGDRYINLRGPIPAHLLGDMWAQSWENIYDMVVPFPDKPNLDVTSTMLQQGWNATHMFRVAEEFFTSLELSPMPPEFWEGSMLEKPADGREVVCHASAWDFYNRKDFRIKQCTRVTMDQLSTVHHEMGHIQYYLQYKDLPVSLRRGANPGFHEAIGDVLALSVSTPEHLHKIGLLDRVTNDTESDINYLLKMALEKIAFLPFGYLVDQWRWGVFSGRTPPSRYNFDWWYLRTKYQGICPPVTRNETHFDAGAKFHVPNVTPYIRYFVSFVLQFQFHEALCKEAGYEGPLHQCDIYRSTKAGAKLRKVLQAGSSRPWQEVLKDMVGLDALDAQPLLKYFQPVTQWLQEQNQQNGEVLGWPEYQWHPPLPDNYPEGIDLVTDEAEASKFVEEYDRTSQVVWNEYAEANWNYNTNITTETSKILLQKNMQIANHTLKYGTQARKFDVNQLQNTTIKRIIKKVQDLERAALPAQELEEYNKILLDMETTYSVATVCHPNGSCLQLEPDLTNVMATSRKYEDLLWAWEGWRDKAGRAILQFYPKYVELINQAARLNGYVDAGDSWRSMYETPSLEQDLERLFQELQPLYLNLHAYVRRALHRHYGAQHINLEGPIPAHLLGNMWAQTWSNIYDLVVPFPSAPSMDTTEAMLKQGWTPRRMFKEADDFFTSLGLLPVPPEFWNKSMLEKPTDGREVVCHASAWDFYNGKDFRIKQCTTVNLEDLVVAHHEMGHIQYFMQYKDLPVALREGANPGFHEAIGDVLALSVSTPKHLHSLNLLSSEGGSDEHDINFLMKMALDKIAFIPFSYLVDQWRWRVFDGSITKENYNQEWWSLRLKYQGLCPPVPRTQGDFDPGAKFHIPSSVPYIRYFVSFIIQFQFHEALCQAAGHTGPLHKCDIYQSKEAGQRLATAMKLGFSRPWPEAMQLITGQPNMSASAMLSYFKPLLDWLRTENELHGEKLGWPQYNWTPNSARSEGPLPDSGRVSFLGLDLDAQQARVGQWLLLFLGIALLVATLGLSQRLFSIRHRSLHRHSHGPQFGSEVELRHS
No end group written: not given here.
# include the unit after the value

Record GEHGGAGMGGGQFQPV [GV-16, GEHGGAGMGGGQFQPV] . Reported IC50: 490 µM

Record GQLGEHGGAGMG [GG-12, GQLGEHGGAGMG] . Reported IC50: 525 µM

Record GNPVGGVGHGTTGT [GT-14, GNPVGGVGHGTTGT] . Reported IC50: 434 µM

Record EQGFLPGPEESGR [ER-13, EQGFLPGPEESGR] . Reported IC50: 457 µM

Record YGNPVGGVGH [YH-10, YGNPVGGVGH] . Reported IC50: 522 µM

* * *

Provide the reported pIC50 of each item.
biological target: COX-1 (Ovis aries, UniProt P05979); assay: COX-1 inhibitory activity (COX Activity Assay kit) and kinetics; type: biochemical
Sequence (P05979 25-600): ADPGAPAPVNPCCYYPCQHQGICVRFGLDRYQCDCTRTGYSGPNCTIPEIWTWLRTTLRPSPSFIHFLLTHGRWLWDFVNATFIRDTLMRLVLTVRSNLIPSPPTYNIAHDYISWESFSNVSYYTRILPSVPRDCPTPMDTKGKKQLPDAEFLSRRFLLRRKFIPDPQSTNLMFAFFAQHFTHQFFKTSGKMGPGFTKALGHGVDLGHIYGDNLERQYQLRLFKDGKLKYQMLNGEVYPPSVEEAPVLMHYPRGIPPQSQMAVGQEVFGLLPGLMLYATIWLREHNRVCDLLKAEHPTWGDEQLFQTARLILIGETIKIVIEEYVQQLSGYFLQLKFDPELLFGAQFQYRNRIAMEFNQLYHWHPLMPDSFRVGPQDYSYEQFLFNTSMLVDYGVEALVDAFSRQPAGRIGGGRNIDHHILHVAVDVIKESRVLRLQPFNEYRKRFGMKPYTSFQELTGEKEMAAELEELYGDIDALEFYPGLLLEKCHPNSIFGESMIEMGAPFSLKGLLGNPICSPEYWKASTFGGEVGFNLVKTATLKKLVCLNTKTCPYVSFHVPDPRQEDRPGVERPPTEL
No end group written: not given here.
pIC50 (log units): -log10 of the concentration in mol/L.

Record GEHGGAGMGGGQFQPV [GV-16, GEHGGAGMGGGQFQPV] . Reported pIC50: 5.10

Record GQLGEHGGAGMG [GG-12, GQLGEHGGAGMG] . Reported pIC50: 5.15

Record RLARAGLAQ [RQ-9, RLARAGLAQ] . Reported pIC50: 6.49

Record GNPVGGVGHGTTGT [GT-14, GNPVGGVGHGTTGT] . Reported pIC50: 4.91

Record EQGFLPGPEESGR [ER-13, EQGFLPGPEESGR] . Reported pIC50: 5.32

Record YGNPVGGVGH [YH-10, YGNPVGGVGH] . Reported pIC50: 4.76

* * *

Target: pancreatic lipase (Homo sapiens, UniProt P16233)
Sequence (P16233 17-465, species assumed): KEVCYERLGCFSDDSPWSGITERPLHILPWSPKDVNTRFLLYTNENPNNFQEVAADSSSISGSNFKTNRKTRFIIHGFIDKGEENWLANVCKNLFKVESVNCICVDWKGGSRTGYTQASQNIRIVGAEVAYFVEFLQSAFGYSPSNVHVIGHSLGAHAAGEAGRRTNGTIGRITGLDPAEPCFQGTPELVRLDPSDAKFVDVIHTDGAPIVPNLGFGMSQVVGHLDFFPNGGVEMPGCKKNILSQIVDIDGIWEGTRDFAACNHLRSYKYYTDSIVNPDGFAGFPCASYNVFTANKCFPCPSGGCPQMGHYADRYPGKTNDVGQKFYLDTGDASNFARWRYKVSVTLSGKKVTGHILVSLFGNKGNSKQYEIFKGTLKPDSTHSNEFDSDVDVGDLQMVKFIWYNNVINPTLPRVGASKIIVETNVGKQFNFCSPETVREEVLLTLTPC
Experiment: Pancreatic lipase inhibitory activity (pNPA) and kinetics
Type: biochemical
Settings: mean ± SD, triplicate
Procedure: For all inhibitory activity, IC50 was calculated. The IC50 value defined as the concentration of the extract inhibiting 50% of the enzyme activity was determined by measuring the enzyme inhibitory activity and peptide contents in each sample. The IC50 value was calculated from the plotted graph of the inhibition activity for the five different peptide concentrations. Lipase inhibitory activity was determined with the method described by Jakubczyk et al.. […]
No end group written: not given here.
Provide the reported IC50 of each item.
Numbers only here, please. The scale is µM.

Record YGNPVGGVGH [YH-10, YGNPVGGVGH] . Reported IC50: 107

Record RLARAGLAQ [RQ-9, RLARAGLAQ] . Reported IC50: 102

Record EQGFLPGPEESGR [ER-13, EQGFLPGPEESGR] . Reported IC50: 54.8

Record GQLGEHGGAGMG [GG-12, GQLGEHGGAGMG] . Reported IC50: 56.6

Record GEHGGAGMGGGQFQPV [GV-16, GEHGGAGMGGGQFQPV] . Reported IC50: 41.9

Record GNPVGGVGHGTTGT [GT-14, GNPVGGVGHGTTGT] . Reported IC50: 86.1
